assay: Partition of avermectins between aqueous acetone and Duolite ES-863 resin (HPLC of supernatant before and after equilibration); details: 68.0% acetone; ES-863 resin, similar procedures
Endpoint Name: % Remaining in Solution

[[record]]
compound = "COC1CC(OC2C(C)OC(OC3C(C)=CCC4CC(CC5(C=CC(C)C(C(C)C)O5)O4)OC(=O)C4C=C(C)C(O)C5OCC(=CC=CC3C)C45O)CC2OC)OC(C)C1O (stereo not drawn) [B1b]"
result = "20.4%"

[[record]]
compound = "CCC(C)C1OC2(CC3CC(CC=C(C)C(OC4CC(OC)C(OC5CC(OC)C(O)C(C)O5)C(C)O4)C(C)C=CC=C4COC5C(O)C(C)=CC(C(=O)O3)C45O)O2)CC(O)C1C (stereo not drawn) [B2a]"
result = "27.8%"

[[record]]
compound = "COC1CC(OC2C(C)OC(OC3C(C)=CCC4CC(CC5(CC(O)C(C)C(C(C)C)O5)O4)OC(=O)C4C=C(C)C(OC)C5OCC(=CC=CC3C)C45O)CC2OC)OC(C)C1O (stereo not drawn) [A2b]"
result = "26.8%"

[[record]]
compound = "CCC(C)C1OC2(C=CC1C)CC1CC(CC=C(C)C(OC3CC(OC)C(OC4CC(OC)C(O)C(C)O4)C(C)O3)C(C)C=CC=C3COC4C(OC)C(C)=CC(C(=O)O1)C34O)O2 (stereo not drawn) [A1a]"
result = "5.68%"

[[record]]
compound = "COC1CC(OC2C(C)OC(OC3C(C)=CCC4CC(CC5(C=CC(C)C(C(C)C)O5)O4)OC(=O)C4C=C(C)C(OC)C5OCC(=CC=CC3C)C45O)CC2OC)OC(C)C1O (stereo not drawn) [A1b]"
result = "10.6%"

[[record]]
compound = "CCC(C)C1OC2(CC3CC(CC=C(C)C(OC4CC(OC)C(OC5CC(OC)C(O)C(C)O5)C(C)O4)C(C)C=CC=C4COC5C(OC)C(C)=CC(C(=O)O3)C45O)O2)CC(O)C1C (stereo not drawn) [A2a]"
result = "15.2%"

